The measurements presented in this section are drawn from ChEMBL document CHEMBL4840353.

Test: Stability in simulated gastric fluid at pH 1.1 assessed as drug degradation at 1 mM measured after 24 hrs by HPLC analysis
Format: ADME
Conditions: read-out: Drug degradation
attributeMeasured: degraded at 24 h, 1000 µM

Before answering, review these 2 worked examples.
{"columns": ["structureNotation", "degraded at 24 h, 1000 µM"],
 "data": [
  ["COc1cc([C@@H]2Oc3cc([C@H]4Oc5cc(O)cc(O)c5C(=O)[C@@H]4O)ccc3O[C@H]2COP(=O)(O)O[C@H]2[C@@H](O)[C@H](n3cnc4c(N)ncnc43)O[C@@H]2CO)ccc1O", "< 5%"],
  ["COc1cc([C@H]2Oc3cc([C@H]4Oc5cc(O)cc(O)c5C(=O)[C@@H]4O)ccc3O[C@@H]2COP(=O)(O)O[C@H]2[C@@H](O)[C@H](n3ccc(=O)[nH]c3=O)O[C@@H]2CO)ccc1O", "27%"]
]}

Kindly consider the entry below.
Value of measured degraded at 24 h, 1000 µM for the entry COc1cc([C@@H]2Oc3cc([C@H]4Oc5cc(O)cc(O)c5C(=O)[C@@H]4O)ccc3O[C@H]2COP(=O)(O)O[C@H]2[C@@H](O)[C@H](n3ccc(=O)[nH]c3=O)O[C@@H]2CO)ccc1O : 27%

###

Test: Stability in simulated gastric fluid at pH 1.1 assessed as drug degradation at 1 mM measured after 24 hrs by HPLC analysis
Assay type: ADME
Details: read-out: Drug degradation
Each entry below lists one item and its recorded degraded at 24 h, 1000 µM value.

Before answering, review these 2 worked examples.
{"columns": ["compound", "observedResult"],
 "data": [
  ["COc1cc(C2Oc3cc([C@H]4Oc5cc(O)cc(O)c5C(=O)[C@@H]4O)ccc3OC2COP(=O)(O)O[C@H]2[C@@H](O)[C@H](n3cnc4c(N)ncnc43)O[C@@H]2CO)ccc1O (stereo partly drawn)", "< 5%"],
  ["COc1cc([C@H]2Oc3cc([C@H]4Oc5cc(O)cc(O)c5C(=O)[C@@H]4O)ccc3O[C@@H]2COP(=O)(O)O[C@H]2[C@@H](O)[C@H](n3cnc4c(N)ncnc43)O[C@@H]2CO)ccc1O", "< 5%"]
]}

Value of measured degraded at 24 h, 1000 µM for the entry COc1cc(C2Oc3cc([C@H]4Oc5cc(O)cc(O)c5C(=O)[C@@H]4O)ccc3OC2COP(=O)(O)O[C@H]2[C@@H](O)[C@H](n3ccc(=O)[nH]c3=O)O[C@@H]2CO)ccc1O (stereo partly drawn) : 27%

###

Assay: Aqueous solubility of the compound
Format: physicochemical
Conditions: buffer; read-out: solubility
attributeMeasured: solubility (µM)
Response body: numeric value in µM, unit text excluded.

Value of measured solubility for the entry COc1cc(C2Oc3cc([C@H]4Oc5cc(O)cc(O)c5C(=O)[C@@H]4O)ccc3OC2CO)ccc1O (stereo partly specified) : 1

###

Each entry below lists one item and its recorded t1/2 value.
Test: Prodrug conversion assessed as RNase (unknown origin) -mediated drug release by measuring half life in imidazole buffer at 1 mM by UV/Vis detector based HPLC analysis
Type: ADME
Conditions: human, 1000 µM
Response body: numeric value in h, unit text excluded.

Value of measured t1/2 for the entry COc1cc([C@H]2Oc3cc([C@H]4Oc5cc(O)cc(O)c5C(=O)[C@@H]4O)ccc3O[C@@H]2COP(=O)(O)O[C@H]2[C@@H](O)[C@H](n3ccc(=O)[nH]c3=O)O[C@@H]2CO)ccc1O : 1.45

Value of measured t1/2 for the entry COc1cc([C@@H]2Oc3cc([C@H]4Oc5cc(O)cc(O)c5C(=O)[C@@H]4O)ccc3O[C@H]2COP(=O)(O)O[C@H]2[C@@H](O)[C@H](n3ccc(=O)[nH]c3=O)O[C@@H]2CO)ccc1O : 0.833

Value of measured t1/2 for the entry COc1cc(C2Oc3cc([C@H]4Oc5cc(O)cc(O)c5C(=O)[C@@H]4O)ccc3OC2COP(=O)(O)O[C@H]2[C@@H](O)[C@H](n3ccc(=O)[nH]c3=O)O[C@@H]2CO)ccc1O (stereo partly specified) : 1.67
